Header: pIC50 / Galectin-3 (Homo sapiens, UniProt P17931) / multiple publications
pIC50: −log10 of the molar value.
Quick rule for you: pIC50 at 7 or higher means yes, lower means no.

Known results for molecules:
given_smiles=CO[C@@H]1[C@@H](n2cc(-c3ccc(C)c(F)c3F)nn2)[C@@H](O)[C@@H](CO)O[C@@H]1Cc1cc(C2CCN(C(C)=O)CC2)on1 tested_on="Galectin-3 (Homo sapiens, UniProt P17931)" label=yes
given_smiles=CO[C@@H]1[C@@H](n2cc(-c3cc(F)c(F)c(Cl)c3)nn2)[C@@H](O)[C@@H](CO)O[C@H]1C(=O)N(c1cc(Br)cc(C#N)c1)[C@H]1CCC[C@@H]1O tested_on="Galectin-3 (Homo sapiens, UniProt P17931)" label=yes
given_smiles=CO[C@@H]1[C@@H](n2cc(-c3cc(F)c(F)c(F)c3)nn2)[C@@H](O)[C@@H](CO)O[C@@H]1C[C@@H]1CN(C2CCN(C(C)=O)CC2)C(=O)O1 tested_on="Galectin-3 (Homo sapiens, UniProt P17931)" label=no

Qu. Evaluate CO[C@@H]1[C@@H](n2cc(-c3cc(F)cc(Cl)c3)nn2)[C@@H](O)[C@@H](CO)O[C@H]1C(=O)N(c1cc(C)cc(C#N)c1)[C@H]1CCCC[C@@H]1O : pIC50 at minimum 7?
Ans. yes

----------
Here's a roundup of log10 IC50 values tested on Galectin-3 (Homo sapiens, UniProt P17931), taken from various published works.
Please note: log10 values; quantity IC50; unit nM.

compound="CC(C)(C)OC(=O)N1CCC(C2=NOC(C[C@H]3O[C@H](CO)[C@H](O)[C@H](n4cc(-c5cc(F)c(F)c(F)c5)nn4)[C@H]3O)C2)CC1 (stereo partly drawn)" number=2.04
compound=OC[C@H]1O[C@H](Cc2cc(C3CCN(c4nc5ccccc5s4)CC3)on2)[C@H](O)[C@@H](n2cc(-c3cc(F)c(F)c(F)c3)nn2)[C@H]1O number=1.95

Quick one: give me log10 IC50 for each item below, same order please.
1. CO[C@@H]1[C@@H](n2cc(-c3cc(F)c(Br)c(F)c3)nn2)[C@@H](O)[C@@H](CO)O[C@H]1C(=O)N(c1cc(Cl)cc(C#N)c1)[C@H]1CCC[C@@H]1O
2. CO[C@@H]1[C@@H](n2cc(-c3ccc(Cl)c(F)c3F)nn2)[C@@H](O)[C@@H](CO)O[C@@H]1CC1=NOC2(CCN(C(=O)OC(C)(C)C)C2)C1 (mixture of isomers)
3. CO[C@@H]1[C@@H](n2cc(-c3cc(F)c(F)c(F)c3)nn2)[C@@H](O)[C@@H](CO)O[C@H]1C(=O)N(c1cc(F)cc(Cl)c1)[C@H]1CCCC[C@@H]1O

Ans.
1.46
2.69
1.28

Qu. Recorded log10 IC50 of CO[C@@H]1[C@@H](n2cc(-c3ccc(F)c(F)c3F)nn2)[C@@H](O)[C@@H](CO)O[C@@H]1Cc1cc(C2CCC2)on1 , please.
Ans. 2.11

----------
pIC50: −log10 of the molar value.
Across several studies, compounds have been characterized by their pIC50 on Galectin-3 (Homo sapiens); a selection follows.
Would you please tag the item met when its pIC50 is 7 or above, and not met when it is below?

Qu. Identify whether the reported pIC50 of the following compound is 7 or greater: CCn1nccc1CN(C(=O)[C@@H]1O[C@H](CO)[C@H](O)[C@H](n2cc(-c3cc(F)c(F)c(F)c3)nn2)[C@H]1OC)[C@H]1CCCC[C@@H]1O
Ans. not met

Qu. What do we get for COc1cc(C#N)cc(N(C(=O)[C@@H]2O[C@H](CO)[C@H](O)[C@H](n3cc(-c4cc(F)cc(Br)c4)nn3)[C@H]2OC)[C@H]2CCC[C@@H]2O)c1 ?
Ans. not met

Qu. And for CO[C@@H]1[C@@H](n2cc(-c3cc(F)c(F)c(Cl)c3)nn2)[C@@H](O)[C@@H](CO)O[C@H]1C(=O)N(c1cc(Cl)cc(C#N)c1)[C@@H]1CC[C@H]1O ?
Ans. not met

Qu. Another compound: Cc1ccc(-c2cn([C@H]3[C@@H](O)[C@@H](CO)O[C@H](Cc4cc(C(C)(C)C)no4)[C@@H]3OC(N)=O)nn2)c(F)c1F
Ans. met

----------
Below: molecules with IC50 recorded for Galectin-3 (Homo sapiens) in separate published works.
Numbers only, in nM.

# annotated cases, reported IC50 shown
given_smiles=CO[C@@H]1[C@@H](n2cc(-c3ccc(C)c(F)c3F)nn2)[C@@H](O)[C@@H](CO)O[C@@H]1Cc1cn(C(C)(C)C)nn1 reported_property=IC50 unit_of_measure=nM number=53
given_smiles=CO[C@@H]1[C@@H](n2cc(-c3cc(F)c(Cl)c(Cl)c3)nn2)[C@@H](O)[C@@H](CO)O[C@H]1C(=O)N(c1cc(Cl)cc(Cl)c1)[C@H]1CCCC[C@@H]1O reported_property=IC50 unit_of_measure=nM number=22
given_smiles=COc1cccc(N(C(=O)[C@@H]2O[C@H](CO)[C@H](O)[C@H](n3cc(-c4cccc(F)c4)nn3)[C@H]2OC)[C@H]2CCCC[C@@H]2O)c1 reported_property=IC50 unit_of_measure=nM number=69
given_smiles=CC(=O)O[C@@H]1[C@@H](n2cc(-c3cc(F)c(Cl)c(F)c3)nn2)[C@@H](O)[C@@H](CO)O[C@H]1C(=O)N(Cc1ccnn1C)[C@H]1CCCC[C@@H]1O reported_property=IC50 unit_of_measure=nM number=53
given_smiles=COc1cc(C#N)cc(N(C(=O)[C@@H]2O[C@H](CO)[C@H](O)[C@H](n3cc(-c4ccc(C#N)c(F)c4)nn3)[C@H]2OC)[C@H]2CCC[C@@H]2O)c1 reported_property=IC50 unit_of_measure=nM number=256

Turning now to a further record.
Qu. Find IC50 (Galectin-3 (Homo sapiens)) for the entry CO[C@@H]1[C@@H](n2cc(-c3cc(F)c(F)c(F)c3)nn2)[C@@H](O)[C@@H](CO)O[C@@H]1Cn1cc(C2(O)CCC2)nn1
Ans. 300

----------
Literature-derived IC50 for Galectin-3 (Homo sapiens, UniProt P17931) follows.
Give bare numbers, in nM.

A selection of reference data follows.
compound="CNC(=O)[C@@H](OCc1ccc(F)cc1)[C@@H]1OC(CO)[C@H](O)C(n2cc(-c3cc(F)c(F)c(F)c3)nn2)C1O (stereo partly drawn)" number=1720
compound=CO[C@@H]1[C@@H](n2cc(-c3cc(F)cc(F)c3)nn2)[C@@H](O)[C@@H](CO)O[C@H]1C(=O)N(c1cc(C)cc(C#N)c1)[C@H]1CCCC[C@@H]1O number=73
compound=CO[C@@H]1[C@@H](n2cc(-c3cc(F)c(F)c(F)c3)nn2)[C@@H](O)[C@@H](CO)O[C@@H]1Cn1cc(C(C)(C)C)nn1 number=93
compound="CNC(=O)[C@@H](OCc1cccc(-c2ccccc2)c1)[C@@H]1OC(CO)[C@H](O)C(n2cc(-c3cc(F)c(F)c(F)c3)nn2)C1O (stereo partly drawn)" number=2560
compound="CO[C@@H]1[C@@H](n2cc(-c3ccc(C)c(F)c3)nn2)[C@@H](O)[C@@H](CO)O[C@@H]1CC1CC(C2CCN(C(=O)OC(C)(C)C)CC2)=NO1 (stereo partly drawn)" number=112

Qu. Param readout = IC50; param system = Galectin-3 (Homo sapiens, UniProt P17931); param query = CO[C@@H]1[C@@H](n2cc(-c3ccc(Cl)c(Cl)c3)nn2)[C@@H](O)[C@@H](CO)O[C@H]1C(=O)N(c1cc(Cl)cc(C#N)c1)[C@H]1CCC[C@@H]1O ; response: value
Ans. 75.9

----------
Multiple publications report pIC50 for Galectin-3 (Homo sapiens, UniProt P17931); what follows is a combined list.
Give bare numbers, as −log10 of the molar value.

Below are worked cases with known answers.
given_smiles=COC(=O)CO[C@@H]1[C@@H](n2cc(-c3cc(F)c(F)c(F)c3)nn2)[C@@H](O)[C@@H](CO)O[C@@H]1CC1=NOC2(CCCCC2)C1 number=6.66
given_smiles=CO[C@@H]1[C@@H](n2cc(-c3cc(F)c(F)c(F)c3)nn2)[C@@H](O)[C@@H](CO)O[C@H]1C(=O)N(c1cc(Br)cc(C#N)c1)[C@@H]1CCC[C@H]1O number=7.01
given_smiles=CO[C@@H]1[C@@H](n2cc(-c3cc(F)cc(F)c3)nn2)[C@@H](O)[C@@H](CO)O[C@H]1C(=O)N(c1cccc(C#N)c1)[C@H]1CCCC[C@@H]1O number=6.95
given_smiles=CO[C@@H]1[C@@H](n2cc(-c3cc(F)c(F)c(F)c3)nn2)[C@@H](O)[C@@H](CO)O[C@@H]1Cc1cn(-c2ccccc2)c(=O)o1 number=6.60
given_smiles=CO[C@@H]1[C@@H](n2cc(-c3cc(F)c(F)c(F)c3)nn2)[C@@H](O)[C@@H](CO)O[C@@H]1Cc1cc(C2CCN(C(=O)N(C)C)CC2)on1 number=6.77

Give me pIC50 for each of these compounds, listed below.
1. CO[C@@H]1[C@@H](n2cc(-c3cc(F)c(Br)c(F)c3)nn2)[C@@H](O)[C@@H](CO)O[C@H]1C(=O)N(c1cc(Cl)cc(C#N)c1)[C@H]1CC[C@@H]1O
2. CO[C@@H]1[C@@H](n2cc(-c3cccc(F)c3)nn2)[C@@H](O)[C@@H](CO)O[C@H]1C(=O)N(c1cc(Cl)cc(C#N)c1)[C@@H]1CCC[C@H]1O
3. CO[C@@H]1[C@@H](n2cc(-c3cc(F)c(F)c(F)c3)nn2)[C@@H](O)[C@@H](CO)O[C@@H]1Cc1cc(C2CCN(C(=O)N3CCN(C)CC3)CC2)on1
4. CO[C@@H]1[C@@H](n2cc(-c3cc(F)c(F)c(F)c3)nn2)[C@@H](O)[C@@H](CO)O[C@@H]1Cc1cc(C(C)(C)C)on1
5. CO[C@@H]1[C@@H](n2cc(-c3cc(F)c(Cl)c(Cl)c3)nn2)[C@@H](O)[C@@H](CO)O[C@H]1C(=O)N(c1cc(Br)cc(C#N)c1)[C@@H]1CC[C@H]1O
6. COc1ccc(C2=NO[C@@H](C[C@H]3O[C@H](CO)[C@H](O)[C@H](n4cc(-c5cc(F)c(F)c(F)c5)nn4)[C@H]3O)C2)cc1

Ans.
1. 7.10
2. 6.08
3. 7.08
4. 6.47
5. 6.60
6. 6.24
